Listing of entries alongside the reported Ki.
Target: human EP1 receptor (Homo sapiens)
Construct: expressed in transfected cells; host or cells: CHO-K1
Sequence (P34995 1-402): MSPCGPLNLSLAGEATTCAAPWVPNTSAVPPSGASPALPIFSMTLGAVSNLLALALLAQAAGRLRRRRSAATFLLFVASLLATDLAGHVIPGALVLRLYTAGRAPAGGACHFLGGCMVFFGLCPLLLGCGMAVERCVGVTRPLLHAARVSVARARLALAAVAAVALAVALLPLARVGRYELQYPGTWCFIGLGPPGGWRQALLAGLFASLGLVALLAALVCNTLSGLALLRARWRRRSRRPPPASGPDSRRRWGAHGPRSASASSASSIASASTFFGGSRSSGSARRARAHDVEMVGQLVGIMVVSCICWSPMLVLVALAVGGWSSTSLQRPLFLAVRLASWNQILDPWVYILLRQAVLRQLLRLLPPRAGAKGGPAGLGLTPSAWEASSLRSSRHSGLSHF
Test: human EP1 calcium mobilisation assay
Format: cell-based
Conditions: human EP1, PGE2-induced calcium mobilisation in CHO-K1 cells; free bases or sodium salts; averages of a number of experiments; read-out: functional pKi value (converted)
Structures can show the parent of a compound that is named as a salt.

1) CC(C)COc1ccc(Cl)cc1Cc1ccc(-c2nc3cc(Br)cnc3[nH]2)o1 [Example 135, hydrochloride] :: > 1 µM
2) Clc1ccc(OCc2ccccc2)c(Cc2ccc(-c3nc4ncccc4[nH]3)o2)c1 :: < 1 µM
3) CC(C)COc1ccc(Cl)cc1Cc1ccc(-c2nc3cc(Cl)ccc3[nH]2)o1 :: < 1 µM
4) CC(C)COc1ccc(Cl)cc1Cc1ccc(-c2nc3cc(F)c(F)cc3[nH]2)o1 :: < 1 µM
5) O=C(NCc1ccccc1)c1ccc(Cc2cc(Cl)ccc2OCc2ccccc2)o1 :: < 1 µM
6) CC(C)COc1ccc(Cl)cc1Cc1ccc(-c2nc3ncccc3[nH]2)o1 :: < 1 µM
7) CC(C)COc1ccc(Cl)cc1Cc1ccc(C(=O)NCc2c(F)cccc2F)o1 :: < 1 µM
8) CC(C)COc1ccc(Cl)cc1Cc1ccc(-c2nc3ccccc3[nH]2)o1 :: ≤ 0.01 µM

In the following, a different compound is considered.
Asked: Bench note: what Ki did CC(C)COc1ccc(Cl)cc1Cc1ccc(C(N)=O)o1 show?
Given back: < 1 µM

----------
Biological target: human EP1 receptor (Homo sapiens)
Construct: expressed in transfected cells; host or cells: CHO-K1
Assay: Binding assay for the human prostanoid EP1 receptor (competition with [3H]-PGE2)
Settings: binding to human EP1 receptor, [3H]-PGE2 competition, CHO-K1 cell membranes; averages of a number of experiments; read-out: pIC50 value (converted)
Counter-ions that a name gives are not always drawn.
Listing of entries alongside the reported IC50.

Worked cases, IC50 given:
1) CC(C)COc1ccc(Cl)cc1Cc1ccc(-c2nc3ccc(CN(C)CCC#N)cc3[nH]2)o1 [Example 149] :: ≤ 10 nM
2) CC(C)COc1ccc(Cl)cc1Cc1ccc(-c2nc3nccnc3[nH]2)o1 [Example 106] :: ≤ 10 nM
3) CC(C)COc1ccc(Cl)cc1Cc1ccc(-c2nc3ccc(CCO)cc3[nH]2)o1 [Example 115] :: ≤ 10 nM
4) OCc1ccc2nc(-c3ccc(Cc4cc(Cl)ccc4OCc4ccccc4)o3)[nH]c2c1 [Example 133] :: ≤ 10 nM
5) CC(C)COc1ccc(Cl)cc1Cc1ccc(-c2nc3c(F)cccc3[nH]2)o1 [Example 108] :: ≤ 10 nM

Asked: Bench note: what IC50 did O=C(Nc1c(F)cccc1F)c1ccc(Cc2cc(Cl)ccc2OCc2ccc(F)cc2F)o1 [Example 36] show?
Given back: ≤ 10 nM

Asked: Check CC(C)COc1ccc(Cl)cc1Cc1ccc(-c2nc3ccc(CN(C)C(C)C)cc3[nH]2)o1 [Example 151] too.
Given back: ≤ 10 nM

Asked: Check CC(C)COc1ccc(Cl)cc1Cc1ccc(-c2nc3nc(Br)cnc3[nH]2)o1 [Example 136, hydrochloride] too.
Given back: ≤ 10 nM

----------
Target: human EP1 receptor (Homo sapiens)
Construct: expressed in transfected cells; host or cells: CHO-K1
Assay: human EP1 calcium mobilisation assay
Assay type: cell-based
Details: human EP1, PGE2-induced calcium mobilisation in CHO-K1 cells; free bases or sodium salts; averages of a number of experiments; read-out: functional pKi value (converted)
Measured Property: Ki

Worked cases, Ki given:
1. O=C(O)c1ccc(Cc2cc(Cl)ccc2OCc2ccncc2)o1 :: ≤ 0.01 µM
2. CC(C)COc1ccc(Cl)cc1Cc1ccc(-c2nc3c(F)cccc3[nH]2)o1 :: < 1 µM
3. CC(C)COc1ccc(Cl)cc1Cc1ccc(-c2nc3ccc(CO)cc3[nH]2)o1 :: < 1 µM

Asked: Record Cc1cc(COc2ccc(Cl)cc2Cc2ccc(C(=O)O)o2)on1 : what is its Ki with human EP1 receptor (Homo sapiens)?
Given back: < 1 µM

Asked: Check CC(C)COc1ccc(Cl)cc1Cc1ccc(C(=O)n2cnc3ccccc32)o1 too.
Given back: < 1 µM

----------
Molecular target: human EP1 receptor (Homo sapiens, UniProt P34995)
Construct: expressed in transfected cells; host or cells: CHO-K1
Sequence (P34995 1-402): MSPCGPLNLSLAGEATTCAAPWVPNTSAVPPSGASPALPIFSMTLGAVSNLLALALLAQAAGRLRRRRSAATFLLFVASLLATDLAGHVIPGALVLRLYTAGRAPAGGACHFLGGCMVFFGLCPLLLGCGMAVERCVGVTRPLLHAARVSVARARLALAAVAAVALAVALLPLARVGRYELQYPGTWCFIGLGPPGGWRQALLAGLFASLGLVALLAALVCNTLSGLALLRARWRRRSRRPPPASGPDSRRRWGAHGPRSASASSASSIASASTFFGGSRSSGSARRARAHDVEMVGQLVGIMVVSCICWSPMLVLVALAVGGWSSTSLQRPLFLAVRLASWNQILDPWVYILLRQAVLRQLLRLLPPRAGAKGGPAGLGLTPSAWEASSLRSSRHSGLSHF
Experiment: human EP1 calcium mobilisation assay
Assay type: cell-based
Conditions: human EP1, PGE2-induced calcium mobilisation in CHO-K1 cells; free bases or sodium salts; averages of a number of experiments; read-out: functional pKi value (converted)
Measured Property: Ki

Worked cases, Ki given:
1. O=C(Nc1c(F)cccc1F)c1ccc(Cc2cc(Cl)ccc2OCc2ccccc2)o1 :: ≤ 10 nM
2. CC(C)COc1ccc(Cl)cc1Cc1ccc(C(=O)NCc2ccc(C(F)(F)F)cc2)o1 :: < 1000 nM
3. CC(C)COc1ccc(Cl)cc1Cc1ccc(C(=O)NC(C)C)o1 :: < 1000 nM

Asked: Record CC(C)COc1ccc(Cl)cc1Cc1ccc(-c2nc3cc(N4CCN(C)CC4)ccc3[nH]2)o1 : what is its Ki with human EP1 receptor (Homo sapiens, UniProt P34995)?
Given back: < 1000 nM

Asked: Check CC(C)COc1ccc(Cl)cc1Cc1ccc(C(=O)NCc2ccc(Cl)cc2)o1 too.
Given back: < 1000 nM

----------
Biological target: human EP1 receptor (Homo sapiens)
Construct: expressed in transfected cells; host or cells: CHO-K1
Assay: human EP1 calcium mobilisation assay
Type: cell-based
Conditions: human EP1, PGE2-induced calcium mobilisation in CHO-K1 cells; free bases or sodium salts; averages of a number of experiments; read-out: functional pKi value (converted)
Measured Property: Ki

1. O=C(O)c1ccc(Cc2cc(Cl)ccc2OCC2CCCCC2)o1 [Example 6] :: < 1 µM
2. CC(C)COc1ccc(Cl)cc1Cc1ccc(-c2nc3ccc(Br)cc3[nH]2)o1 [Example 110] :: > 1 µM

In the following, a different compound is considered.
Asked: Record O=C(Nc1ccccc1)c1ccc(Cc2cc(Cl)ccc2OCc2ccccc2)o1 [Example 70] : what is its Ki with human EP1 receptor (Homo sapiens)?
Given back: < 1 µM

----------
Listing of entries alongside the reported Ki.
Molecular target: human EP1 receptor (Homo sapiens)
Construct: expressed in transfected cells; host or cells: CHO-K1
Test: human EP1 calcium mobilisation assay
Type: cell-based
Settings: human EP1, PGE2-induced calcium mobilisation in CHO-K1 cells; free bases or sodium salts; averages of a number of experiments; read-out: functional pKi value (converted)

Worked cases, Ki given:
1. O=C(Nc1c(F)cccc1F)c1ccc(Cc2cc(Cl)ccc2OCc2ccc(Cl)cc2)o1 [Example 90] :: < 1 µM
2. CC(C)COc1ccc(Cl)cc1Cc1ccc(-c2nc3ccc(CNC(C)C)cc3[nH]2)o1 [Example 155] :: < 1 µM
3. CC(C)CNC(=O)c1ccc(Cc2cc(Cl)ccc2OCc2ccccc2)o1 [Example 50] :: < 1 µM
4. CCCOc1ccc(Cl)cc1Cc1ccc(C(=O)O)o1 [Example 1] :: < 1 µM
5. O=C(O)Cc1ccc(Cc2cc(Cl)ccc2OCc2ccccc2)o1 [Example 16] :: ≤ 0.01 µM
6. CC(C)COc1ccc(Cl)cc1Cc1ccc(-c2nc3cscc3[nH]2)o1 [Example 109] :: < 1 µM
7. CC(C)COc1ccc(Cl)cc1Cc1ccc(-c2nc3cc4cnn(C)c4cc3[nH]2)o1 [Example 107] :: < 1 µM
8. O=C(Nc1c(F)cccc1F)c1ccc(Cc2cc(Cl)ccc2OCc2ccccn2)o1 [Example 91] :: < 1 µM

Asked: Bench note: what Ki did CC(C)COc1ccc(Cl)cc1Cc1ccc(C(=O)NCc2ccccc2)o1 [Example 57] show?
Given back: ≤ 0.01 µM
